- System: Staph. aureus
- TEST METHOD NOTES: MIC vs Staph. aureus (Table 2)
- Type: cell-based
- REPORTED CONDITIONS: Staphylococcus aureus, strain not given
QUANTITY MEASURED: MIC (µg/mL)
Answer format: numeric, µg/mL implied, no suffix.

(Q) For the compound shown here, COc1cc(Cc2cnc(N)nc2N)cc(OC)c1OC [TMP, reference compound] , give the reported MIC.
(A) 0.5

(Q) I have this compound here, `COc1cc(Cc2cnc(N)nc2N)c2cccnc2c1N(C)C.Cl.Cl` , and I need its recorded MIC.
(A) 0.5

(Q) Report MIC for `COc1cc(Cc2cnc(N)nc2N)c2ncccc2c1N` please.
(A) 0.5

(Q) // returns reported MIC for input `COc1cc(Cc2cnc(N)nc2N)c2ccc(=O)oc2c1OC`
(A) 0.5

(Q) What does the data say about its MIC? Entry: `COc1cc(Cc2cnc(N)nc2N)c2c(c1OC)OCCC2`
(A) 0.5

(Q) Report MIC for `COc1ccc(Cc2cnc(N)nc2N)c2cccnc12` please.
(A) 0.5

(Q) Any idea what its MIC is? The compound is `CC(=O)O.Cc1cc(Cc2cnc(N)nc2N)c2cccnc2c1-n1cccc1`
(A) 0.5

(Q) Query (compound): `COc1cc(Cc2cnc(N)nc2N)c2cccnc2c1` ; field requested: MIC
(A) 0.5

(Q) # MIC lookup, item `Cc1cc(Cc2cnc(N)nc2N)c2cccnc2c1N.Cl`
(A) 0.5

(Q) Give its MIC value. Item: `Cc1cc(Cc2cnc(N)nc2N)c2cccnc2c1.Cl.Cl`
(A) 0.5
